Assignment: determine reported IC50 for the given compounds.
- Tested on: Hepatitis B Virus
- Assay Summary: HBV test system: HBV-DNA in the supernatant of transfected hepatoma cells (PEG precipitation, non-radioactive HBV DNA probe)
- Type: cell-based
- Condition Summary: HepG2.2.15, 50% inhibition of HBV-DNA concentration in supernatant, HEP G2.2.15 cells, read-out: IC₅₀
One number for each entry, in nM.

Some solved cases for reference:
compound="CN1CCN(c2c(F)cc3c(=O)c(C(=O)O)cn4c3c2OC(C(C)(C)C)=C4)CC1 [Beispiel 1]" obs_value=100
compound="CC1=COc2c(N3CCOCC3)c(F)cc3c(=O)c(C(=O)O)cn1c23 [Beispiel 16]" obs_value=5000
compound="CCOC(=O)c1cn2c3c(c(N4CCC(N)C4)c(F)cc3c1=O)OC(c1ccc(OC)cc1)=C2 (centres unmarked) [Beispiel 38]" obs_value=5000
compound="CC1=COc2c(N3CCNCC3)c(F)cc3c(=O)c(C(=O)O)cn1c23 [Beispiel 39]" obs_value=100

// below: IC50 requested for another compound
stdin: Given COC(=O)c1cn2c3c(c(N4CCNCC4)c(F)cc3c1=O)OC=C2C [Beispiel 33] , state its recorded IC50.
stdout: 500
